- System: L cells
- Assay Name: Percentage of control cell growth was calculated at 100 uM nucleosides after 4 days
- Assay type: functional, Mus musculus, L929
# Control per record follows
Measure Name: Control (%)

Compound	Measure Name	Value
CCCCCCCCCOc1ncnc2c1ncn2C1CCC(CO)O1 (centres undefined)	Control	23
CCCCCCCCOc1ncnc2c1ncn2C1CCC(CO)O1 (centres undefined)	Control	28
CCCCCCCCCCOc1ncnc2c1ncn2C1CCC(CO)O1 (centres undefined)	Control	6
CCCCCCCOc1ncnc2c1ncn2C1CCC(CO)O1 (centres undefined)	Control	34

---

- System: MT4
- Assay Name: Effect of Coformycin on the Anti-HIV activity in MT-4 cells at 1.0 uM
- Assay type: functional, cell-based
- Particulars: Homo sapiens

Molecule	IC50 / µM
O=c1[nH]cnc2c1ncn2[C@H]1CC[C@@H](CO)O1 [DIDANOSINE]	39

---

# pIC50 per record follows
- Test system: MT4
- Assay Name: Anti-Human immunodeficiency virus activity against MT-4 cells
- Type: functional, cell-based
pIC50: −log10 of the molar value.

Molecule	Tested On	pIC50
OCC1CCC(n2cnc3c(OCCF)ncnc32)O1 (stereo unspecified)	MT4	< 4.00
CCOc1ncnc2c1ncn2C1CCC(CO)O1 (stereo unspecified)	MT4	< 4.00
CCCCCCCCCOc1ncnc2c1ncn2C1CCC(CO)O1 (stereo unspecified)	MT4	< 5.30
CC[C@@H](C)Oc1ncnc2c1ncn2[C@H]1CC[C@@H](CO)O1	MT4	< 4.00
CCC(C)Oc1ncnc2c1ncn2[C@H]1CC[C@@H](CO)O1 (stereo partly specified)	MT4	< 4.00
COc1ncnc2c1ncn2C1CCC(CO)O1 (stereo unspecified)	MT4	< 4.00
CCCCCCCCOc1ncnc2c1ncn2C1CCC(CO)O1 (stereo unspecified)	MT4	< 4.49
OCC1CCC(n2cnc3c(OCC(F)(F)F)ncnc32)O1 (stereo unspecified)	MT4	< 4.00
CCCOc1ncnc2c1ncn2C1CCC(CO)O1 (stereo unspecified)	MT4	< 4.00
CCC(CC)Oc1ncnc2c1ncn2C1CCC(CO)O1 (stereo unspecified)	MT4	< 4.00
CCCCCCCCCCOc1ncnc2c1ncn2C1CCC(CO)O1 (stereo unspecified)	MT4	< 5.30
